# Assay System: human thrombin (Homo sapiens)
# Construct: purified human thrombin, Enzyme Research Laboratories; purchased Enzyme Research Laboratories, South Bend, Indiana
# Protocol Text: Inhibition of amidase activity of thrombin (Kass), chromogenic substrate
# Assay type: biochemical
# Condition Summary: apparent association constant, mean over a range of concentrations
Square brackets hold non-standard residues; d marks the D form. Peptide text beside a SMILES is read from it. dPip = O=C(O)[C@H]1CCCCN1; Nphe = O=C(O)CNCc1ccccc1; Nleu = CC(C)CNCC(=O)O; NEtG = CCNCC(=O)O; Sar = CNCC(=O)O
Recorded Endpoint: Enzyme Kass Human Thrombin (L/mol × 10^6)

// worked examples, Enzyme Kass Human Thrombin included
Cl.Cl.N=C(N)NCCC[C@@H](C=O)NC(=O)CN(CCCCC(=O)O)C(=O)[C@H]1CCCCN1    1.8
Cl.Cl.N=C(N)NCCC[C@@H](C=O)NC(=O)CN(CCC(=O)O)C(=O)[C@H]1CCCCN1 [Example 13, D--hPro--N(CH2 CH2 COOH)Gly--ArgH.2HCl]    0.83
CC(C)CCN(CC(=O)N[C@H](C=O)CCCN=C(N)N)C(=O)[C@H]1CCCCN1.Cl.Cl [Example 6, D--hPro--N(isoamyl)Gly--ArgH.2HCl]    16
CN(CC(=O)N[C@H](C=O)CCCNC(=N)N)C(=O)[C@H]1CCCCN1.Cl.Cl [Example 1] (H-[dPip]-[Sar]-Arg-aldehyde)    22
CNCC(=O)N(CCc1ccccc1)CC(=O)N[C@H](C=O)CCCNC(=N)N.Cl.Cl [Example 17, Sar--N(CH2 CH2 Ph)Gly--ArgH.2HCl]    2.9

I: Cl.Cl.NC(N)=NCCC[C@@H](C=O)NC(=O)CN(CCC1CCCCC1)C(=O)[C@H]1CCCCN1
II: CC(C)CN(CC(=O)N[C@H](C=O)CCCNC(=N)N)C(=O)[C@H]1CCCCN1.Cl.Cl [Example 5, D--hPro--N(i--Bu)Gly--ArgH.2HCl] (H-[dPip]-[Nleu]-Arg-aldehyde)
III: CCS(=O)(=O)N[C@H](Cc1ccccc1)C(=O)N(C)CC(=O)N[C@H](C=O)CCCNC(=N)N.Cl.Cl
IV: Cc1ccccc1N(CC(=O)N[C@H](C=O)CCCN=C(N)N)C(=O)[C@H]1CCCCN1.Cl.Cl [Example 12, D--hPro--N(o--Me--Ph)Gly--ArgH.2HCl]
V: Cl.Cl.N=C(N)NCCC[C@@H](C=O)NC(=O)CN(CCc1ccccc1)C(=O)[C@@H]1CCCN1 [Example 19, L--Pro--N(CH2 CH2 Ph)Gly--ArgH.2HCl]
Ask: Ascending by Enzyme Kass Human Thrombin, please: list the molecules accordingly. # the answer lists labels in the order requested
Result: V, IV, I, II, III
(V: 0.64 L/mol × 10^6, IV: 3.3 L/mol × 10^6, I: 5.4 L/mol × 10^6, II: 24 L/mol × 10^6, III: 37 L/mol × 10^6)

1: CCN(CC(=O)N[C@H](C=O)CCCNC(=N)N)C(=O)[C@H]1CCCCN1.Cl.Cl [Example 2] (H-[dPip]-[NEtG]-Arg-aldehyde)
2: Cl.Cl.N=C(N)NCCC[C@@H](C=O)NC(=O)CN(Cc1ccccc1)C(=O)[C@H]1CCCCN1 [Example 7, D--hPro--N(Bn)Gly--ArgH.2HCl] (H-[dPip]-[Nphe]-Arg-aldehyde)
Ask: Which record would sort first by descending Enzyme Kass Human Thrombin, 1 or 2 ? Reply briefly: the label of your chosen item.
Result: 1
